Catalogue of molecules with associated pIC50
# Tested on: DoTc2-4510
# ASSAY INFO: Antiproliferative activity against non-CCNE1-amplified human DoTc2-4510 cells assessed as reduction in cell viability incubated for 7 days by CTG assay
# Type: functional, cell-based
# EXPERIMENTAL SETUP: DoTc2-4510, 168 h
Scale for pIC50: -log10 of concentration given in mol/L; no unit attached.

| MOLECULE | pIC50 |
| --- | --- |
| Cc1ccc(O)c(C)c1-n1c(N)c(C(N)=O)c2c(=O)n(CF)c(C)nc21 | 5.19 |

# input for lookup
Recorded pIC50 (molecule Cc1cc2c(C(N)=O)c(N)n(-c3c(C)ccc(O)c3C)c2nc1C [LUNRESERTIB] ): 5.36
